# Tested on: Arabidopsis thaliana
# Assay details: Herbicidal activity and tryptophan reversal on Arabidopsis grown on agar medium
# Type: in vivo
# Run conditions: herbicide 500 μM
Quick list: herbicidal injury rating per entry.
Measured metric: herbicidal injury rating

>  <Smiles representation>
Nc1ccc(Br)cc1SCCCCP(=O)(O)O

>  <Reading>
4

$$$$
>  <Smiles representation>
O=P(O)(O)CCCCSc1ccccc1O

>  <Reading>
5C

$$$$
>  <Smiles representation>
CCOP(=O)(CCCCSc1cc(Cl)ccc1N)OCC

>  <Reading>
6

$$$$
>  <Smiles representation>
Nc1ccc(Cl)cc1SCCCCP(=O)(O)O

>  <Reading>
3

$$$$
>  <Smiles representation>
CCOP(=O)(CCCCSc1ccccc1O)OCC

>  <Reading>
8

$$$$
>  <Smiles representation>
CCOP(=O)(CCCCSc1cc(Br)ccc1N)OCC

>  <Reading>
6

$$$$

* * *

# Tested target: Salmonella typhimurium tryptophan synthase holoenzyme (α2β2), TSα reaction (Salmonella typhimurium)
# Construct: made in house; host or cells: E. coli strain CB149pSTB7
# Assay details: Inhibition of tryptophan synthase by the TSα reaction, microtiter kinetic coupled enzyme assay
# Assay type: biochemical
# Run conditions: TSα activity (Salmonella enzyme) I50
pIC50: −log10 of the molar value.
Quick list: pIC50 per entry.

>  <Smiles representation>
Cc1ccc(SCCCCP(=O)(O)O)c(N)c1

>  <pIC50>
6.00

$$$$
>  <Smiles representation>
O=P(O)(O)CCCCSc1ccccc1O

>  <pIC50>
6.89

$$$$

* * *

# Tested target: Salmonella typhimurium tryptophan synthase holoenzyme (α2β2), TSα reaction (Salmonella typhimurium)
# Construct: made in house; host or cells: E. coli strain CB149pSTB7
# Assay details: Inhibition of tryptophan synthase by the TSα reaction, microtiter kinetic coupled enzyme assay
# Format: biochemical
# Run conditions: I50 TS, TSα reaction of Salmonella holoenzyme

>  <Molecule>
O=P(O)(O)C=CCCSc1ccccc1O [Compound 28]

>  <IC50 (nM)>
570

$$$$
>  <Molecule>
O=P(O)(O)CCCC[S+]([O-])c1ccccc1O (centres unmarked) [Compound 32]

>  <IC50 (nM)>
440

$$$$
>  <Molecule>
O=P(O)(O)CCCCSc1ccccc1O [Compound 22]

>  <IC50 (nM)>
130

$$$$
>  <Molecule>
O=P(O)(O)C=CCCSc1cc(Br)ccc1O [Compound 31]

>  <IC50 (nM)>
260

$$$$
>  <Molecule>
O=P(O)(O)CCCCS(=O)(=O)c1ccccc1O [Compound 33]

>  <IC50 (nM)>
360

$$$$

* * *

Quick list: herbicidal injury rating per entry.
# System: Arabidopsis thaliana
# Assay details: Herbicidal activity and tryptophan reversal on Arabidopsis grown on agar medium
# Assay type: in vivo
# Run conditions: herbicide 250 μM
Measured metric: herbicidal injury rating

>  <Smiles representation>
Nc1ccc(Cl)cc1SCCCCP(=O)(O)O

>  <Tested target>
Arabidopsis thaliana

>  <Reading>
3

$$$$
>  <Smiles representation>
CCOP(=O)(CCCCSc1cc(Br)ccc1N)OCC

>  <Tested target>
Arabidopsis thaliana

>  <Reading>
5

$$$$
>  <Smiles representation>
CCOP(=O)(CCCCSc1ccccc1O)OCC

>  <Tested target>
Arabidopsis thaliana

>  <Reading>
7

$$$$
>  <Smiles representation>
CCOP(=O)(CCCCSc1cc(Cl)ccc1N)OCC

>  <Tested target>
Arabidopsis thaliana

>  <Reading>
5

$$$$
>  <Smiles representation>
Nc1ccc(Br)cc1SCCCCP(=O)(O)O

>  <Tested target>
Arabidopsis thaliana

>  <Reading>
4

$$$$

* * *

# Tested target: Salmonella typhimurium tryptophan synthase holoenzyme (α2β2), TSα reaction (Salmonella typhimurium, UniProt P00929)
# Construct: made in house; host or cells: E. coli strain CB149pSTB7
# Sequence (P00929 whole entry): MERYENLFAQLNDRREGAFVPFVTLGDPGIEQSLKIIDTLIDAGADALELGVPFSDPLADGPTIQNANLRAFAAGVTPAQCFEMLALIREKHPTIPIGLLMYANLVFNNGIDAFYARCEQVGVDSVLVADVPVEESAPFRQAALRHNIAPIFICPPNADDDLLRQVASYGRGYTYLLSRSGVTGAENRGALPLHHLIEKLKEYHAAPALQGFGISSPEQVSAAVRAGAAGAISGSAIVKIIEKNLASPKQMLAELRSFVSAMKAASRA
# Sequence (P0A2K1 2-397, further chain): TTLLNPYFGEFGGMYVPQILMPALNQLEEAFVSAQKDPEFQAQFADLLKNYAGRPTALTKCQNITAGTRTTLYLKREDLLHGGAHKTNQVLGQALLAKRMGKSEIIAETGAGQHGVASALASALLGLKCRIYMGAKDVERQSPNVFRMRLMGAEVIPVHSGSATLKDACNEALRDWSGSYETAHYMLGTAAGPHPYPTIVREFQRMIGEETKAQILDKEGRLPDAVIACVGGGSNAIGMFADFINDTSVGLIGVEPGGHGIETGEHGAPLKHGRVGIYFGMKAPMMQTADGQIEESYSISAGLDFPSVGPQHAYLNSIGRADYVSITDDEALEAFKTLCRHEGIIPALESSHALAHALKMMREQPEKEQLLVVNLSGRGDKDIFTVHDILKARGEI
# Assay details: Inhibition of tryptophan synthase by the TSα reaction, microtiter kinetic coupled enzyme assay
# Type: biochemical
# Run conditions: TSα reaction, Salmonella holoenzyme, 30 min at 37° C., 100 μM IGP; read-out: TS inhibition I50
pIC50: −log10 of the molar value. Counter-ions that a name gives are not always drawn.
Label Condition met when pIC50 is at or above 5; otherwise label Condition not met.

>  <Compound>
CP(=O)(O)CCCCSc1ccccc1N

>  <Qualitative label>
Condition not met

$$$$
>  <Compound>
Nc1ccccc1SCC=CCP(=O)(O)O

>  <Qualitative label>
Condition met

$$$$
>  <Compound>
Nc1ccccc1SCCCCP(=O)(O)O [dilithium salt]

>  <Qualitative label>
Condition met

$$$$
>  <Compound>
Nc1cc(C(F)(F)F)ccc1SCCCCP(=O)(O)O

>  <Qualitative label>
Condition met

$$$$
>  <Compound>
Nc1cccnc1SCCCCP(=O)(O)O

>  <Qualitative label>
Condition met

$$$$

* * *

# Tested target: Salmonella typhimurium tryptophan synthase holoenzyme (α2β2), TSα reaction (Salmonella typhimurium)
# Construct: made in house; host or cells: E. coli strain CB149pSTB7
# Assay details: Inhibition of tryptophan synthase by the TSα reaction, microtiter kinetic coupled enzyme assay
# Format: biochemical
# Run conditions: I50 for IPP used as a standard in all tests, TSα reaction, 100 μM IGP
Measured metric: IC50

>  <Compound>
O=P(O)(O)OCCCc1c[nH]c2ccccc12 [Compound 1, indole-3-propanol phosphate, reference compound]

>  <Measured metric>
IC50

>  <Reading>
1000 to 2000 nM

$$$$

* * *

Quick list: TSα activity, relative Vmax per entry.
# Tested target: Arabidopsis TS enzyme (Arabidopsis thaliana)
# Construct: GST (N, cleaved yes); made in house; host or cells: E. coli DH5α (pGEX-2T constructs)
# Sequence (Q42529 with tags, fused parts or gaps): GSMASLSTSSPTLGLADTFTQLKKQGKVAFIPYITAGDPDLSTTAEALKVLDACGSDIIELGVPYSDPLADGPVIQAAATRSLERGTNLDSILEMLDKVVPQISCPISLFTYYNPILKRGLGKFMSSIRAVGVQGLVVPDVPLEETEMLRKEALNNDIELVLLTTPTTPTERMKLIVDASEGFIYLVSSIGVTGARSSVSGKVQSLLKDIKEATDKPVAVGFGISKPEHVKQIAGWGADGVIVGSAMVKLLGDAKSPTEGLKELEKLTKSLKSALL
# Sequence (P14671 with tags, fused parts or gaps partner): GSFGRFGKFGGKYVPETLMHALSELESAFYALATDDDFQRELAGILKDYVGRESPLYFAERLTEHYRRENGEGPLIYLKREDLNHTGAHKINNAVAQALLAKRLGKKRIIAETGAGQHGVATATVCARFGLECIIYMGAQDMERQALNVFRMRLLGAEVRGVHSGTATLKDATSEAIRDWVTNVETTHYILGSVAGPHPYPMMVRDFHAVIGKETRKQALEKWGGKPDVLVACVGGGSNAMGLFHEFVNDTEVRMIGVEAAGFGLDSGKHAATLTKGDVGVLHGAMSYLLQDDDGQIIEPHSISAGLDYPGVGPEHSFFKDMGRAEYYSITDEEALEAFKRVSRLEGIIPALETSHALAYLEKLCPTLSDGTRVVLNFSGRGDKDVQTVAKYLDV
# Assay details: TSα assay with recombinant plant TSα and TSβ expressed in E. coli
# Format: biochemical
# Run conditions: inhibitor 82 uM; pAC 758 (1.5 ug) + pAC 755 (3 ug)

>  <Compound>
O=P(O)(O)OCCCc1c[nH]c2ccccc12 [Compound 1, indole-3-propanol phosphate, reference compound]

>  <TSα activity, relative Vmax, mOD/min>
2.223

$$$$
>  <Compound>
O=P(O)(O)CC=CCSc1ccccc1O

>  <TSα activity, relative Vmax, mOD/min>
0.909

$$$$
>  <Compound>
O=C(Oc1ccccc1SCCCCP(=O)(O)O)c1ccccc1

>  <TSα activity, relative Vmax, mOD/min>
0.168

$$$$
>  <Compound>
O=P(O)(O)CCCCS(=O)(=O)c1ccccc1O

>  <TSα activity, relative Vmax, mOD/min>
0.150

$$$$
>  <Compound>
O=P(O)(O)C=CCCSc1cc(Br)ccc1O

>  <TSα activity, relative Vmax, mOD/min>
0.238

$$$$
>  <Compound>
O=P(O)(O)CCCC[S+]([O-])c1ccccc1O (stereo not drawn)

>  <TSα activity, relative Vmax, mOD/min>
0.095

$$$$

* * *

# Tested target: Salmonella typhimurium tryptophan synthase holoenzyme (α2β2), TSα reaction (Salmonella typhimurium, UniProt P00929)
# Construct: made in house; host or cells: E. coli strain CB149pSTB7
# Assay details: Inhibition of tryptophan synthase by the TSα reaction, microtiter kinetic coupled enzyme assay
# Format: biochemical
# Run conditions: TS inhibition I50, TSα reaction, Salmonella holoenzyme, 30 min at 37° C., 100 μM IGP
# Description: Inhibitors of TS were identified by their ability to inhibit the production of glyceraldehyde-3-P by the TSα reaction of the Salmonella typhimurium holoenzyme (α2β2) in the presence of a limiting amount of indole-3-glycerolphosphate and an excess of serine […] Potential inhibitors were evaluated by adding 100 μM inhibitor (equimolar to substrate IGP):or less, in a 1:1 dilution series down from 100 μM, until the inhibition measured was less than 15%. […]
pIC50: −log10 of the molar value.
Quick list: pIC50 per entry.

>  <Molecule>
O=P(O)(O)OCCCc1c[nH]c2ccccc12 [Compound 1, indole-3-propanol phosphate, reference compound]

>  <pIC50>
5.70

$$$$
>  <Molecule>
O=P(O)(O)CCCCc1c[nH]c2ccccc12 [Compound 7b, Phosphonic acid, [4-(indol-3-yl)butyl]-]

>  <pIC50>
4.70

$$$$
>  <Molecule>
Nc1ccc(Br)cc1SCCCCP(=O)(O)O

>  <pIC50>
7.15

$$$$

* * *

# Tested target: Salmonella typhimurium tryptophan synthase holoenzyme (α2β2), TSα reaction (Salmonella typhimurium, UniProt P00929)
# Construct: made in house; host or cells: E. coli strain CB149pSTB7
# Assay details: Inhibition of tryptophan synthase by the TSα reaction, microtiter kinetic coupled enzyme assay
# Assay type: biochemical
# Run conditions: I50 TS, TSα reaction of the highly purified Salmonella typhimiurium holoenzyme
Quick list: IC50 per entry.

>  <Compound>
O=P(O)(O)CCCc1c[nH]c2ccccc12

>  <IC50 / µM>
125

$$$$
>  <Compound>
O=P(O)(O)OCCCc1c[nH]c2ccccc12 [Compound 1, indole-3-propanol phosphate, reference compound]

>  <IC50 / µM>
5

$$$$
>  <Compound>
O=P(O)(O)CCCCc1c[nH]c2ccccc12 [Compound 7b, Phosphonic acid, [4-(indol-3-yl)butyl]-]

>  <IC50 / µM>
20

$$$$

The measurements presented in this section are drawn from patent US20050050594A1.
